Values were extracted from paper PMC3466232.

experimental-system: T1, human transportin 1 (Trn1, residues 1-890) (human, UniProt Q92973-2 1-890)
T1 construct: transportin 1 (Trn1), human, full-length, residues 1-890; numbers count on: the 890-residue form; Cloned in pGEX-4T-3 with a TEV site; clone was a gift from Y. M. Chook; source: E. coli BL21 (DE3), purified (glutathione Sepharose, TEV cleavage, HiTrap Q FF, Superdex 200)
T1 sequence (looked up): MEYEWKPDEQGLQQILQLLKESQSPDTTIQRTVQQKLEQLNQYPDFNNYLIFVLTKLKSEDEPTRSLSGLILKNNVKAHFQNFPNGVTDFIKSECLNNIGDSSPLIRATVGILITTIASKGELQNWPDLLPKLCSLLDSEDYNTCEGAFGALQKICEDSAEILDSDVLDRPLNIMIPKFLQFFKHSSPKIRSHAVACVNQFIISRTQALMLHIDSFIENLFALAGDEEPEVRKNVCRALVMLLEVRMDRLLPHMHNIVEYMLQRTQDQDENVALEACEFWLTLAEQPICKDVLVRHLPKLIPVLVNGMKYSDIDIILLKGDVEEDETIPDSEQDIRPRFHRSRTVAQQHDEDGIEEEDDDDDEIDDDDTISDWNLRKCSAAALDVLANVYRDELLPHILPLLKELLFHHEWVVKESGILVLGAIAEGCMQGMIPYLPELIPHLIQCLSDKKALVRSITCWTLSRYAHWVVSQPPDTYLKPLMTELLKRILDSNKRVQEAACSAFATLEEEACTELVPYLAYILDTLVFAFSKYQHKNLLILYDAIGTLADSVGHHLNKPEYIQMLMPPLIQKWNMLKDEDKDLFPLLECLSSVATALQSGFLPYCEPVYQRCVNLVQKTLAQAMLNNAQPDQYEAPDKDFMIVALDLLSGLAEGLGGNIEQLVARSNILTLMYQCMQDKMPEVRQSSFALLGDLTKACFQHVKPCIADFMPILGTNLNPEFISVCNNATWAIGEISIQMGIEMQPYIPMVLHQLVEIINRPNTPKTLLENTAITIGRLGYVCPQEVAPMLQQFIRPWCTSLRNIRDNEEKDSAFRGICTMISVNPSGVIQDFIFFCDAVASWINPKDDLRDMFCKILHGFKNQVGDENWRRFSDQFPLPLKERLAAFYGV
test-protocol: SPR; BIAcore 3000, 25°C; Trn1 immobilised on a CM5 chip by amine coupling (about 8600 RU); FUS-NLS injected at increasing concentrations, 50 µl/min; 20 mM HEPES pH 7.3, 110 mM potassium acetate, 2 mM magnesium acetate, 2 mM EGTA, 2 mM DTT, 10% glycerol, 0.005% Tween 20; 1:1 Langmuir fit
measurement-conditions: both partners purified
Catalogue of koff readings, one per entry.
Give just the numeric value; s⁻¹ need not be written.

Known koff results, listed for orientation:
binder	endpoint	measured-result
RGGRGGGDRGGFDPGKMDSRGEHRQDRRERPY (domain or fragment, human, UniProt P35637 495-526, looked up, ALS-associated mutation found in patients; made by site-directed mutagenesis; not shown: GST, N-terminal, cleaved) [FUS-NLS(G507D)]	koff	0.044
RGGRGGGDRGGFGPGKMDSRCEHRQDRRERPY (domain or fragment, human, UniProt P35637 495-526, looked up, ALS-associated mutation found in patients; made by site-directed mutagenesis; not shown: GST, N-terminal, cleaved) [FUS-NLS(G515C)]	koff	0.0051
RGGRGGGDRGGFGPGKMDSRGEHRQDRRERPY (domain or fragment, UniProt P35637 495-526, looked up, Cloned in pGEX-6P-2; also called FUS-NLS(WT); WT; not shown: GST, N-terminal, cleaved) [nuclear localization sequence of human FUS (FUS-NLS, residues 495-526), wild type]	koff	0.0037

Pending binder:
Query :: What value of koff has been reported for the following binder? RGGRGGGDRGGFGPGKMDSRGEHRQDRRSRPY (domain or fragment, human, UniProt P35637 495-526, looked up, Designed from the structure; not found in familial ALS patients; not shown: GST, N-terminal, cleaved) [FUS-NLS(E523S)]
Result :: 1.1e-05
